All figures here come from BindingDB's records for patent US20250248955.

# ASSAYED SYSTEM: Acetyl-CoA acetyltransferase, mitochondrial (Homo sapiens, UniProt P24752)
# Sequence (P24752 whole entry): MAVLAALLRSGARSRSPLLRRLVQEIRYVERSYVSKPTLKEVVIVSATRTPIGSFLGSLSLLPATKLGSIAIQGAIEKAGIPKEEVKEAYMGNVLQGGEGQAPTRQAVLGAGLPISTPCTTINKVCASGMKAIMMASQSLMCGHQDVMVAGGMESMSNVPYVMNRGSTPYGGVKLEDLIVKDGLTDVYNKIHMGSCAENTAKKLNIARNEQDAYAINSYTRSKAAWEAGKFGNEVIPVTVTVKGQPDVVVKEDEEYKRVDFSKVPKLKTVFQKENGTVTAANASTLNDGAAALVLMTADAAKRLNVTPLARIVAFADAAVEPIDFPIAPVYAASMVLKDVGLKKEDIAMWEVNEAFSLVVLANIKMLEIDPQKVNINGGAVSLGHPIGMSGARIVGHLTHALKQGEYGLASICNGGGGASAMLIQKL
# MEASUREMENT NOTES: Experimental Method Screening Method of ACAT1 Small Molecule Inhibitors
OBSERVATION TYPE: IC50 (µM)

1) COCOc1ccc(/C=C/C(=O)Nc2ccc(OCCc3ccccc3)cc2)cc1OCOC; 136
2) O=C(/C=C/c1ccc(O)c(O)c1)Nc1ccc(OCCc2ccc(O)cc2)cc1; 114
3) O=C(/C=C/c1ccc(O)c(O)c1)Nc1ccc(OCCc2ccc(F)cc2)cc1; 134
